# Experimental System: G-protein coupled receptor 183 (Homo sapiens) (UniProt P32249)
# Sequence (P32249 whole entry, looked up): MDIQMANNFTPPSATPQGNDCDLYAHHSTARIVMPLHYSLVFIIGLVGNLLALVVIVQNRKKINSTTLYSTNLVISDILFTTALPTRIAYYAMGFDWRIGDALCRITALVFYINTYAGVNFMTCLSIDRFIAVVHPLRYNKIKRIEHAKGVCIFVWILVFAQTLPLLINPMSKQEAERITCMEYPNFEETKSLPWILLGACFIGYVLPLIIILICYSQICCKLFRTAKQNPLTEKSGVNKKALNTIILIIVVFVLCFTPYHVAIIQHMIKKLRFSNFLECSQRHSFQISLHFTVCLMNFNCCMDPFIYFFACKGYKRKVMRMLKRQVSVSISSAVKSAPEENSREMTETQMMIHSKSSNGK
# Experimental Protocol: EBI2 receptor activation without oxysterol – cell-based, single concentration, agonist mode, luminescence, counter-screen for EBI2 antagonist project, confirmation (AID 652000)
# Measurement Context: EBI2-expressing cells, 60 min, at 5 µM, stronger effect = higher value, 0% vehicle, 100% 7α,25-dihydroxycholesterol control
Screen size: about 2,400 compounds; fewer than 10 were called active. A selection follows.
Readout Kind: activation (%)
Numeric only. Scale: %

Lookup: Quick one: activation for Cc1nc2ccc(C(=O)N3CCN(c4ccccc4)CC3)cc2s1 ?
Found: -1.39

Lookup: Queued: COc1ccc(OCC(=O)N2CCN(C(=O)COc3ccccc3)CC2)cc1
Found: -0.25

Lookup: Next: Cc1ccc(-c2nn(-c3ccccc3)cc2/C=C/C(=O)Nc2cccc(S(N)(=O)=O)c2)cc1
Found: 1.07

Lookup: And the next one, Cc1ccc(S(=O)(=O)N2CCN(C(=O)CSc3cc(C)ccc3C)CC2)c(C)c1 ?
Found: 1.03

Lookup: Subsequent entry: COc1ccc(C(c2nnnn2C2CCCC2)N2CCN(C/C=C/c3ccccc3)CC2)cc1 (centres undefined)
Found: -0.25

Lookup: Entry COc1ccccc1N1CCN(C(=O)c2cc(=O)c3cc(C)ccc3o2)CC1 please
Found: 0.39

Lookup: And for COc1ccc([C@H]2CC(=O)C=C(c3ccc(C)cc3)C2)cc1 ?
Found: 1.12

Lookup: Can you check COc1ccc([C@H]2CC(=O)C=C(/C=C/c3ccc(Cl)cc3)C2)cc1 next?
Found: -0.43

Lookup: Also, Cc1ccc(N2CC(C(=O)Nc3ccc(S(=O)(=O)N4CCCC4)cc3)CC2=O)cc1C (centres undefined) please.
Found: 1.21

* * *

Would you mind telling me the reported activation of each entry?
# Experimental System: G-protein coupled receptor 183 (Homo sapiens)
# Experimental Protocol: EBI2 receptor activation without oxysterol – cell-based, single concentration, agonist mode, luminescence, counter-screen for EBI2 antagonist project, confirmation (AID 652000)
# Measurement Context: EBI2-expressing cells, 60 min, at 5 µM, stronger effect = higher value, 0% vehicle, 100% 7α,25-dihydroxycholesterol control
Screen size: about 2,400 compounds; fewer than 10 were called active. Not all results are given here.
Hi! Could you send only the number? It should be in %, unit omitted.

Lookup: Which measured activation belongs to COc1ccc(OCC(=O)N2CCN(C(=O)c3cccs3)CC2)cc1 , tested on G-protein coupled receptor 183 (Homo sapiens)?
Found: 1.48

Lookup: Next molecule: COc1ccc2cc(C3=CC(=O)C[C@H](c4ccc5c(c4)OCO5)C3)ccc2c1
Found: -1.39

Lookup: Also, CC(C)Cc1ccc(-c2cc3nc(NCc4cccc(Cl)c4)ccn3n2)cc1 please.
Found: -1.2

Lookup: And for CCN1CCN(C(=O)CSc2ccc(C)cc2)CC1 ?
Found: 0.02

Lookup: Same read-out for CCOC(=O)N1CCN(C(=O)COc2ccc(Br)cc2)CC1 ?
Found: 1.84

Lookup: Then this molecule: Fc1ccc(N2CCN(Cc3cnc(Oc4ccc(Br)cc4)s3)CC2)cc1
Found: 1.8

Lookup: Can you handle COc1ccc(-c2cc(C3CCN(c4ncccc4[N+](=O)[O-])CC3)[nH]n2)cc1 next?
Found: -0.52

Lookup: Please answer likewise for O=C(CCNS(=O)(=O)c1ccccc1)NCCSc1ccc(Br)cc1
Found: -1.84

Lookup: Next entry: CC1CCc2sc3nc(N4CCN(CCO)CC4)n4ncnc4c3c2C1 (configuration not stated)
Found: 1.12

Lookup: # iterate: COc1ccc(C(C(=O)NC2CCCCC2)N(C(=O)c2snc(C(N)=O)c2N)c2ccccc2OC)cc1 (configuration not stated)
Found: 1.3

Lookup: Further, for CN1CCc2ccccc2C1Cc1ccccc1NC(=O)c1sc2ccccc2c1Cl (configuration not stated) ?
Found: -0.98

Lookup: Same again, this time with COc1ccc(N(CC(=O)Nc2cc(OC)ccc2OC)S(=O)(=O)c2c(C)noc2C)cc1
Found: 1.12

Lookup: Continue with N#Cc1ccc(C(c2nnnn2CCc2ccccc2)N2CCCCCC2)cc1 (configuration not stated)
Found: 0.07

Lookup: Again, but for CCOc1ccc(C(C)=O)cc1COC(=O)c1cnc(Cl)c(Cl)c1
Found: -0.57

Lookup: Please do the same for O=C(CCc1ccccc1)NNC(=O)COc1ccc(Cl)cc1 as well.
Found: 0.21

Lookup: One more molecule: O=C(NCc1ccc(Cl)cc1)c1cc(=O)nc2sc(-c3ccccc3)nn12
Found: -0.48

Lookup: Next entry: CCC(C)(C)NC(=O)c1cc([N+](=O)[O-])ccc1N1CCCCC1
Found: -1.43

Lookup: // next record COc1ccc(CNC(=O)CN(c2ccc(OC)c(Cl)c2)S(=O)(=O)c2ccc(C)cc2)cc1
Found: -1.61

Lookup: Would you kindly repeat that for Cc1cc(OCCOc2cccc3cccnc23)c(C)cc1Cl ?
Found: 1.3

Lookup: Thanks! And Cc1ccc(S(=O)(=O)NCCNC(C)c2ccc(Br)cc2)cc1 (configuration not stated) ?
Found: 0.98

Lookup: Follow-up item: COc1cc(/C=C(\C#N)C(=O)Nc2ccc3ccccc3c2)c([N+](=O)[O-])cc1OC
Found: -0.75

Lookup: Field entry: O=C(COc1ccc2c(c1)CCC2)N1CCN(c2ccc(F)cc2)CC1
Found: -1.43

* * *

# Experimental System: G-protein coupled receptor 183 (Homo sapiens) (UniProt P32249)
# Experimental Protocol: EBI2 receptor activation without oxysterol – cell-based, single concentration, agonist mode, luminescence, counter-screen for EBI2 antagonist project, confirmation (AID 652000)
# Measurement Context: EBI2-expressing cells, 60 min, at 5 µM, stronger effect = higher value, 0% vehicle, 100% 7α,25-dihydroxycholesterol control
Out of some 2,400 compounds screened, fewer than 10 were called active. Only a sample is shown.
Readout Kind: activation (%)
Answer with a number only, understood to be in %.

Lookup: Could you share which activation value was measured for O=C(c1cc2cc(F)ccc2[nH]1)N1CCN(c2ccc(F)cc2)CC1 ?
Found: 1.94

Lookup: Now give it for COc1ccc(-c2nc(N)ncc2-c2ccc(Cl)cc2)c(O)c1 too.
Found: 1.03

Lookup: Also CN(Cc1ccc(F)cc1)C(=O)COc1ccc2ccccc2c1 ?
Found: 0.62

Lookup: Thanks! And CC(C)Cn1c(N2CCN(C(=O)/C=C/c3ccccc3)CC2)nc2ccccc21 ?
Found: -1.2

Lookup: Next molecule: CCC1Nc2ncnc(N3CCN(c4ccccc4)CC3)c2N(Cc2ccc(Cl)cc2)C1=O (stereo not given)
Found: -4.52

Lookup: And the next one, CCOC(=O)N1CCN(C(=O)CSc2ccc(Cl)cc2)CC1 ?
Found: 2.07

Lookup: What do we get for COc1ccc(/C=N/N=C/c2c[nH]c(=O)c(C#N)c2Nc2ccccc2)cc1 ?
Found: -1.52

Lookup: Next entry: O=C(CC(c1ccccc1)c1ccccc1)NCC(O)c1ccc([N+](=O)[O-])cc1 (stereo not given)
Found: -0.61

Lookup: For Cc1ccc2oc(=O)c3cnn(CC(=O)N(Cc4ccco4)C4CCCCC4)c3c2c1 then?
Found: -0.75

Lookup: Try O=C(NCc1ccc(Cl)cc1)C1CCN(S(=O)(=O)c2cccs2)CC1 next.
Found: 0.21

* * *

# Experimental System: G-protein coupled receptor 183 (Homo sapiens)
# Experimental Protocol: EBI2 receptor activation without oxysterol – cell-based, single concentration, agonist mode, luminescence, counter-screen for EBI2 antagonist project, confirmation (AID 652000)
# Measurement Context: EBI2-expressing cells, 60 min, at 5 µM, stronger effect = higher value, 0% vehicle, 100% 7α,25-dihydroxycholesterol control
Among all 2,400 compounds or so, fewer than 10 were called active. Not all results are given here.
Readout Kind: activation (%)
Give a bare numeral; the unit % is implied.

Lookup: I'd like to know its activation. The compound in question is FC(F)(F)Oc1ccccc1C(c1nnnn1C1CCCCC1)N1CCN(C/C=C/c2ccccc2)CC1 (stereo not given)
Found: 2.25

Lookup: Thanks! And Cc1cccc(NC(=O)CN2CCN(C(=O)C3CCN(C(=O)/C=C/c4ccccc4)CC3)CC2)c1C ?
Found: -0.88

Lookup: Also COc1cccc(-c2cc(C(=O)N3CCN(c4ccccc4OC)CC3)no2)c1 ?
Found: -0.66

Lookup: Please give the result for Cc1cc(OCC(=O)N2CCN(c3ncccn3)CC2)ccc1Cl too.
Found: 1.39

Lookup: Moving on to Cc1cccc(C)c1-n1nnnc1C(CCc1ccccc1)N1CCN(C/C=C/c2ccccc2)CC1 (stereo not given)
Found: -1.39

* * *

# Experimental System: G-protein coupled receptor 183 (Homo sapiens) (UniProt P32249)
# Experimental Protocol: EBI2 receptor activation without oxysterol – cell-based, single concentration, agonist mode, luminescence, counter-screen for EBI2 antagonist project, confirmation (AID 652000)
# Measurement Context: EBI2-expressing cells, 60 min, at 5 µM, stronger effect = higher value, 0% vehicle, 100% 7α,25-dihydroxycholesterol control
In all, about 2,400 compounds went through this assay and fewer than 10 were called active. These entries were drawn from the full list.
Readout Kind: activation

Lookup: Quick check: activation of Cc1ccc(SCC(=O)N2CCN(c3ccc(F)cc3)CC2)cc1 ?
Found: 4.12% (inactive)

Lookup: Try this molecule next: O=c1[nH]c(CN2CCN(S(=O)(=O)c3ccc4c(c3)OCCO4)CC2)nc2sc3c(c12)CCCC3
Found: -1.11% (inactive)

Lookup: CCCC1CCC(=NNC(=S)NCCc2ccccc2)CC1 (configuration not stated) ?
Found: -1.07% (inactive)

Lookup: Queued: COc1ccc(NC(=O)N2CCC(Cc3ccccc3)CC2)cc1
Found: -0.34% (inactive)

Lookup: Quick one: N#CC(=C1CCCC1)c1nc(-c2ccc(Cl)cc2)cs1
Found: -0.93% (inactive)

Lookup: Try O=C(NNC(=O)c1ccc2ccccc2c1)c1ccc(Cl)cc1 next.
Found: 0.21% (inactive)

Lookup: What about this molecule? O=C(COc1ccc(Cl)cc1)N1CCN(S(=O)(=O)c2ccc(Cl)cc2)CC1
Found: 1.62% (inactive)

Lookup: Can you check CCOC(=O)N1CCN(C(=O)COc2ccc(Cl)cc2C)CC1 next?
Found: 0.57% (inactive)

Lookup: Another: COc1ccc(-c2cn(-c3ccc(OC)cc3)c(=S)[nH]2)cc1
Found: 1.66% (inactive)

Lookup: Another: COc1ccc(/C=C/C(=O)c2ccc(OC)cc2O)cc1
Found: -0.61% (inactive)

Lookup: # repeat for Cc1cc(C)cc(Oc2nc3c(C)cccn3c(=O)c2/C=C(\C#N)C(=O)NC2CCS(=O)(=O)C2)c1 (configuration not stated)
Found: -1.11% (inactive)

Lookup: Do the same for COc1cccc(NC(=O)Cn2c3ccccc3c3nc4n(c(=O)c32)CCS4)c1 please
Found: -1.89% (inactive)

Lookup: Repeat with CC1(Cc2ccccc2C#N)C(=O)Nc2ccc(-c3ccc4[nH]ccc4c3)cc21 (configuration not stated)
Found: -0.66% (inactive)

Lookup: Now consider Cc1ccc(OCC(=O)N2CCN(S(=O)(=O)c3ccc(Cl)s3)CC2)cc1C and answer again.
Found: 1.84% (inactive)

Lookup: Try this molecule too: O=C(NCCCc1ccccc1)C1CCC(=O)N(CCc2ccc(Cl)cc2)C1 (configuration not stated)
Found: 1.57% (inactive)

Lookup: Please give the result for CCOC(=O)C1CCN(C(=O)COc2cc(C)c(Br)c(C)c2)CC1 too.
Found: 2.25% (inactive)

Lookup: Quick one: O=C(c1ccc(-n2cnnn2)cc1)N1CCN(C(c2ccccc2)c2ccccc2)CC1
Found: 1.53% (inactive)

Lookup: Then what about the molecule COc1cccc(NC(=O)Cn2c3ccc(F)cc3c3nc4n(c(=O)c32)CCS4)c1 ?
Found: 0.89% (inactive)

Lookup: Another molecule to look at: CC(=O)c1nn(-c2ccc(C)cc2)cc1C(=O)c1cccc(Br)c1
Found: 1.07% (inactive)

Lookup: Item: Cc1ccc(-n2ncc3c(=O)n(-c4ccc(C)c(C)c4)c(-c4ccco4)nc32)cc1
Found: -1.66% (inactive)

Lookup: Moving on to the next molecule: CC(C)N(Cc1ccccc1)C(=S)Nc1ccc(OC(F)F)cc1
Found: 0.07% (inactive)

Lookup: And the next one, COc1ccc(OC)c(C(=O)c2coc3ccc(O)c(CN4CCOCC4)c23)c1 ?
Found: 0.62% (inactive)
